experiment: inhibitors of hydroxyurea-induced Chk1 phosphorylation, primary screen, imaging, HeLa, phospho-Chk1 nuclear intensity (AID 1187); conditions: hydroxyurea-induced phospho-Chk1 immunofluorescence imaging, higher = more signal; note: test concentration not given here

MOLECULE | z-score
CN(C)c1ccc(C(O)C2C=CC3C(=O)NC(=O)C3N2Nc2ccc(Cl)cc2Cl)cc1 (centres undefined) | 0.0147
CCOC(=O)C[C@H]1[C@H](OC(=O)Cc2ccc3c(c2)OCO3)[C@@H](NC(=O)CC(C)C)c2cc(OCCCO)ccc2N1C(=O)c1ccccc1 | -0.321
Cc1ccc(S[C@]2(C(=O)NC(C)C)CC(=O)N(C3Cc4ccccc4C3)[C@@H]2c2ccc(CO)cc2)cc1 | 0.0887
CCOC(=O)C[C@H]1[C@H](OC(=O)c2cc3ccccc3oc2=O)[C@@H](NC(=O)c2ccc3ccccc3c2)c2cc(OCCCO)ccc2N1C(=O)c1ccc2ccccc2n1 | 0.034
Cc1ccc([C@@H]2CC=C(C(=O)O)[C@H](c3ccccc3)N2S(=O)(=O)c2ccc(C)cc2)cc1 | -0.824
C=C[C@H](OC)[C@@H](OC(=O)Nc1ccc(SC)cc1)c1ccc(O)c(F)c1 | -0.478
COc1cc2c(cc1OC)CN(C(=O)[C@@H]1[C@H]3C(=O)O[C@H](c4ccccc4)[C@H](c4ccccc4)N3[C@H](c3ccccc3OCCO)[C@@]13C(=O)Nc1ccccc13)CC2 | 0.876
COCCOC(=O)N1C(=O)[C@@]2(c3cc(C#CCCO)ccc31)[C@H](C(=O)N1CCCCCCC1)[C@H]1C(=O)O[C@H](c3ccccc3)[C@H](c3ccccc3)N1[C@@H]2c1ccc(O)cc1 | -0.457
C=CCC1=C[C@H]2[C@H]([C@@H]3C=C[C@]2(CC=C)C(=O)[C@]32CO2)[C@@]2(CO2)C1=O | -0.606
[N-]=[N+]=NCc1ccccc1C[C@@]1(C(=O)N2CCOCC2)N=C(c2ccc(OCCCO)cc2)O[C@@H]1c1ccccc1N=[N+]=[N-] | 0.0427
CO[C@H]1O[C@H](CO)[C@@H](OC(=O)Nc2ccc(Oc3ccccc3)cc2)[C@H](OC(=O)Nc2ccccc2-c2ccccc2)[C@H]1OC(=O)Nc1ccccc1-c1ccccc1 | 0.413
O=C1OCCC/C=C\[C@H]2OC34C=CCN(CCN5CCOCC5)C(=O)[C@H]3N(CCCCCO)C(=O)[C@@H]4C12 (some centres undefined) | 0.292
COC(=O)[C@H]1[C@@H]2COc3ccccc3[C@H]2N[C@H]1C(=O)OC | -0.134
CCOC(=O)C1=CC[C@@H](c2ccc(-c3ccc(OCc4ccccc4)cc3)c(OC)c2)N(S(=O)(=O)c2ccc(C)cc2)[C@H]1c1ccccc1 | -0.995

* * *

test: inhibitors of hydroxyurea-induced Chk1 phosphorylation, primary screen, imaging, HeLa, phospho-Chk1 antibody, percent positive cells (AID 1186); details: hydroxyurea-induced phospho-Chk1 immunofluorescence imaging, higher = more signal
Each entry below carries its recorded z-score.

COMPOUND | z-score
COC(=O)[C@H]1[C@@H]2COc3ccccc3[C@H]2N[C@H]1C(=O)OC | -0.953
[N-]=[N+]=NCc1ccccc1C[C@]1(C(=O)N2CCCCC2)N=C(c2ccc(OCCCO)cc2)O[C@H]1c1ccccc1CN=[N+]=[N-] | -0.0016
COc1cc2c(cc1OC)CN(C(=O)[C@@H]1[C@H]3C(=O)O[C@H](c4ccccc4)[C@H](c4ccccc4)N3[C@H](c3ccccc3OCCO)[C@@]13C(=O)Nc1ccccc13)CC2 | 0.306
Cc1ccc(S[C@]2(C(=O)O)CC(=O)N(Cc3ccccc3)[C@@H]2c2ccc(CO)cc2)cc1 | -0.947
CN(C)C(=O)[C@@]1(Cc2ccccc2N=[N+]=[N-])N=C(c2ccc(OCCCO)cc2)O[C@H]1c1ccccc1CN=[N+]=[N-] | -0.554
Cc1ccc(S[C@]2(C(=O)NCCCN(C)C)CC(=O)N(Cc3ccccc3)[C@@H]2c2ccc(CO)cc2I)cc1 | 0.379
COc1cc2c(cc1OC)CN(C(=O)[C@H]1[C@@H]3C(=O)O[C@@H](c4ccccc4)[C@@H](c4ccccc4)N3[C@@H](c3ccccc3OCCO)[C@]13C(=O)Nc1ccc(C#CC4(O)CCCCCC4)cc13)CC2 | -0.0766
CO[C@H]1O[C@H](CO)[C@@H](OC(=O)Nc2ccc3c(c2)OCO3)[C@H](OC(=O)Nc2ccccc2)[C@@H]1OC(=O)Nc1ccccc1 | 0.171
Cc1ccc(S(=O)(=O)c2cc3oc2CC[C@@H](CO)NC(=O)N(C)Cc2cn(nn2)C[C@H](Cc2ccccc2)NC3=O)cc1 | -0.131
CCCN1C(=O)[C@@]2(CCS(=O)(=O)c3ccccc3)N=C(c3ccc(OCCCO)cc3)O[C@H]2c2ccccc21 | 0.128
CCCCCCc1nc(-c2cc(C)c(OC)c(C)c2)cc2c1[Si](C(C)C)(C(C)C)O[C@H]2c1ccccc1 | 0.0883
C=CCC(OC(C)=O)[C@@H]1[C@@H](N(Cc2cc3ccccc3o2)C(=O)c2ccc(C)cc2)c2cc(OCCCO)ccc2N1C(=O)c1ccc2ccccc2n1 (some centres undefined) | 0.347
CC(C)CN1C(=O)[C@@]2(Cc3ccccc31)c1ccccc1C(=O)N(C1CCCCC1)[C@H]2c1ccc(CO)cc1 | -0.81
Cc1ccc(S[C@]2(C(=O)O)CC(=O)N(Cc3cc(C(F)(F)F)cc(C(F)(F)F)c3)[C@@H]2c2ccc(CO)cc2I)cc1 | 0.407

* * *

test: HepG2 liver cancer cell viability effects, profiling panel, resazurin fluorescence, 24 h, PK04 Diversity Set (AID 1172); details: higher = more signal; note: test concentration not given here
ENDPOINT NAME: z-score

SAMPLE SMILES | ENDPOINT NAME | OBSERVED VALUE
COCCOC(=O)N1C(=O)[C@@]2(c3cc(C#CCCO)ccc31)[C@H](c1ccc(O)cc1)N1[C@H](c3ccccc3)[C@H](c3ccccc3)OC(=O)[C@H]1[C@@H]2C(=O)Nc1nc2ccccc2s1 | z-score | 0.484
[N-]=[N+]=Nc1ccccc1C[C@@]1(C(=O)N2CCOCC2)N=C(c2ccc(OCCCO)cc2)O[C@@H]1c1ccccc1N=[N+]=[N-] | z-score | -0.133
C=CC[C@]1(C(=O)O)N=C(c2ccc(OCCCO)cc2)O[C@H]1c1ccccc1N=[N+]=[N-] | z-score | 0.912
COC(=O)C[C@H]1O[C@]2(C(=O)N(Cc3ccccc3)c3ccc(I)cc32)[C@@H](C)[C@@H]1[Si](C)(C)c1ccc(OC)cc1 | z-score | -0.583
COc1ccc(CCNC(=O)[C@@]2(c3ccc([N+](=O)[O-])cc3)CC(=O)N(C(C)C)[C@@H]2c2ccc(CO)cc2)cc1 | z-score | 0.483
C[C@H]1COC(=O)[C@@H]2CCCN2C(=O)[C@@H](C)COC(=O)[C@@H]2CCCN2C1=O | z-score | 0.678
CO[C@H]1COC(=O)[C@H](C)NC(=O)CC=C[C@@H](C)[C@H](NS(=O)(=O)c2ccc(C)cc2)COC(=O)CC=C[C@@H]1C | z-score | 0.072

* * *

A collection of compounds and their measured z-score
experiment: basal HepG2 mitochondrial membrane potential changes, profiling panel, cell-based, JC-1 fluorescence, 24 h, 100 nL compound (AID 1167); conditions: higher = more signal; note: test concentration not given here

COMPOUND | z-score
C=CCC(OC(C)=O)[C@@H]1[C@@H](N(Cc2cccc3ccccc23)C(=O)Cc2ccc(F)cc2)c2cc(OCCCO)ccc2N1C(=O)Cc1ccc2ccccc2c1 (stereo partly specified) | 1.72
C=CCC(OC(C)=O)[C@@H]1[C@@H](N(Cc2ccc(-c3ccccc3)cc2)C(=O)c2ccc(-c3ccccc3)cc2)c2cc(OCCCO)ccc2N1C(=O)Cc1ccc(OC)cc1 (stereo partly specified) | 0.424
COc1cc2c(cc1OC)CN(C(=O)[C@@H]1[C@H]3C(=O)O[C@H](c4ccccc4)[C@H](c4ccccc4)N3[C@H](c3ccccc3OCCO)[C@@]13C(=O)Nc1ccccc13)CC2 | 0.648
O=C1C[C@@](C(=O)NCCN2CCOCC2)(c2ccc([N+](=O)[O-])cc2)[C@@H](c2ccc(CO)cc2)N1C1CCCCC1 | 0.899
C=C(CCCC)C(=O)CC[C@@H](OC(C)=O)c1ccccc1OCCO | -0.684
COCCOC(=O)N1C(=O)[C@@]2(c3cc(C#CCNC(N)=O)ccc31)[C@H](c1ccccc1OCCO)N1[C@H](c3ccccc3)[C@H](c3ccccc3)OC(=O)[C@H]1[C@@H]2C(=O)NC[C@H](O)c1ccccc1 | -1.64

* * *

composite z-score listing for selected molecules.
molecular target: Calmodulin-1 (Homo sapiens); test: CALM1 binders on microarrays, EGTA buffer, profiling panel, biochemical, small-molecule microarray, Cy5-labelled CALM1 (AID 1111); details: Cy5-CALM1 binding fluorescence, higher = more signal;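 note: labelled calmodulin applied in Tris saline Tween buffer holding calcium plus EGTA and DTT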

MOLECULE | composite z-score
O=C(O)[C@@H]1Cc2c([nH]c3ccccc23)[C@@H](c2ccccc2)N1 | -0.106
C=CCNC(=O)[C@@H]1[C@H]2C(=O)O[C@H](c3ccccc3)[C@H](c3ccccc3)N2[C@H](c2ccc(OCCO)cc2)[C@@]12C(=O)N(C(=O)OCCOC)c1ccc(C#CC3(O)CCCCCC3)cc12 | 1.82
CCCNC(=O)[C@@]1(Sc2ccc(C)cc2)CC(=O)N(Cc2ccccc2Cl)[C@@H]1c1ccc(CO)cc1 | 0.857
CCOC(=O)C[C@H]1[C@H](OC(=O)c2ccccc2-c2ccccc2)[C@@H](NC(=O)c2ccc(-c3ccccc3)cc2)c2cc(OCCCO)ccc2N1C(=O)Cc1ccc(OC)cc1 | -0.203
C=C(CCCC)C(=O)CC[C@@H](OC(C)=O)c1ccccc1OCCO | -0.923
CCCC[C@H]1OB(O)C[C@H]2C1=C(COC)C[C@H]1C(=O)N(Cc3ccccc3)C(=O)[C@H]12 | 0.188
C=CCC(OC(C)=O)[C@@H]1[C@@H](N(Cc2cc3ccccc3o2)C(=O)Cc2ccc(F)cc2)c2cc(OCCCO)ccc2N1C(=O)c1ccc(-c2ccccc2)cc1 (stereo partly specified) | -0.302
COc1ccc(-c2ccccc2[C@@H]2N[C@H](C(=O)O)CC[C@H]2C)cc1 | -0.27
COc1cc([C@@H]2N[C@H](C(=O)O)Cc3c2[nH]c2ccccc32)cc(OC)c1OC | -0.0344
CCOC(=O)C1=CCC(c2cccc3ccccc23)N(S(=O)(=O)c2ccc(C)cc2)C1 (stereo unspecified) | 1.47
C=C(/C(=C/C[C@@H](OC(=O)c1ccncc1)c1ccc(CO)o1)c1cnc2ccccc2c1)C(C)C | 1.64
O=C1O[C@H](c2ccccc2)[C@H](c2ccccc2)N2[C@H]1[C@@H](C(=O)Nc1nc3ccccc3s1)[C@]1(C(=O)Nc3ccc(C#CC4(O)CCCCCC4)cc31)[C@H]2c1ccc(O)cc1 | 1.94
CC(C)[Si](OCC[C@H]1O[C@]2(C(=O)N(Cc3ccccc3)c3ccccc32)[C@@H](C)[C@@H]1[Si](C)(C)O)(C(C)C)C(C)C | 0.214
COc1ccc(C(O)C2C=CC3C(=O)N(C)C(=O)C3N2N2CCCCC2)cc1OCc1ccccc1 (stereo unspecified) | 0.747
C[N+](C)(C)CCCCNC(=O)[C@H]1C[C@H]2C(=O)NCC(=O)N2[C@H]1c1cccc(OCCO)c1 | -1.68
O=[N+]([O-])c1ccc(C[n+]2ccc3ccc(O)cc3c2)o1 | 1.01

All figures here come from PubChem BioAssay.
